Molecular target: T1, cynomolgus soluble urokinase plasminogen activator receptor (suPAR) (cynomolgus, UniProt Q9GK78 23-303, limits assumed)
T1 construct: Target antigen of the off-rate screen; also called cynomolgus uPAR; cynomolgus suPAR
T1 sequence (Q9GK78 23-303 limits assumed): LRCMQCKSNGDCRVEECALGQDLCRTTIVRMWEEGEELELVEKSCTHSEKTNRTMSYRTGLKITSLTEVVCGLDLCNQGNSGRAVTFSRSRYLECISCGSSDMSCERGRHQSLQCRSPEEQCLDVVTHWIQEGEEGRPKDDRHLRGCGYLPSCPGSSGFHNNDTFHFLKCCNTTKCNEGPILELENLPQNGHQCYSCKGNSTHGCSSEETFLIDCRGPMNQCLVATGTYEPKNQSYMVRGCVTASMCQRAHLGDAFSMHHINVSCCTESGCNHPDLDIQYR
Assay: off-rate (kdis) screen of scFv clones, biosensor (Octet)
ATTRIBUTE_MEASURED: koff

>>> result("suPAR_DB01_B12 (scFv, V domains shown, screened as scFv) VH: QVQLVQSGAEVKKPGASVKVSCKASGYTFTSYYMHWVRQAPGQGLEWMGWIDPENGNTIYDQKFQGRVTMTRDTSTSTVYMELSSLRSEDTAVYYCARGYDVDWFVYWGQGTLVTVSS VL: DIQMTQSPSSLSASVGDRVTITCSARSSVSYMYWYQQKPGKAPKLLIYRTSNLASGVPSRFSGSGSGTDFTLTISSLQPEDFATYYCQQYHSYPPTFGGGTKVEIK")
"0.000238 s⁻¹"

[in] What koff value was documented for this binder, suPAR_DB01_A12 (scFv, V domains shown, screened as scFv) VH: QVQLVQSGAEVKKPGASVKVSCKASGYTFTGYYMHWVRQAPGQGLEWMGWIDPEGGNTIYAQKFQGRVTMTRDTSTSTVYMELSSLRSEDTAVYYCARGYDVDWFVYWGQGTLVTVSS VL: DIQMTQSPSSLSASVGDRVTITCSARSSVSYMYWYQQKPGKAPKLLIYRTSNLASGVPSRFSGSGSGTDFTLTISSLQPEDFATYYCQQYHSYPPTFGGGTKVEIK ?
[out] 0.000142 s⁻¹
